# experiment.notes: Binding affinity to 5'-d(GTCCGCGGAC)2-3' DNA assessed as change in melting temperature at 1:1 DNA to compound molar ratio by spectrophotometric analysis
value.kind: ΔTm (°C)

[a] CN(C)CCN1C(=O)c2cccc3cc(Br)cc(c23)C1=O
[b] CC(C)Nc1cc2c3c(cccc3c1)C(=O)N(CCN(C)C)C2=O
[c] Cc1cc2c3c(cccc3c1)C(=O)N(CCN(C)C)C2=O
[d] CN(C)CCN1C(=O)c2cccc3cc(Cl)cc(c23)C1=O
List by increasing ΔTm. Enter labels, ranked according to the request. b, d, c, a
(b: 0 °C, d: 1.1 °C, c: 2.7 °C, a: 6 °C)

[A] CN(C)CCN1C(=O)c2cccc3cc(-c4ccccc4)cc(c23)C1=O
[B] CN(C)CCN1C(=O)c2cccc3cc(N)cc(c23)C1=O
Given the listed records, identify the one among A and B with higher ΔTm. Mark your answer with the label of the selected entry. B

###

# System: Nucleic Acid
# experiment.notes: Induction of DNA intercalation using 5'-d(GTAATATTAC)2-3' at 250 uM by UV-vis spectrophotometric analysis
# Type: nucleic-acid assay
Active and inactive are the calls of the source. The rule behind the calls is not given here.
value.kind: Activity

Worked cases, Activity given:
[
  {
    "chemical.structure": "CC(C)Nc1cc2c3c(cccc3c1)C(=O)N(CCN(C)C)C2=O",
    "value.kind": "Activity",
    "reported": "Active"
  },
  {
    "chemical.structure": "CN(C)CCN1C(=O)c2cccc3cc(N)cc(c23)C1=O",
    "value.kind": "Activity",
    "reported": "Active"
  },
  {
    "chemical.structure": "CN(C)CCN1C(=O)c2cccc3cc(Br)cc(c23)C1=O",
    "value.kind": "Activity",
    "reported": "Active"
  },
  {
    "chemical.structure": "CN(C)CCN1C(=O)c2cccc3cc(Cl)cc(c23)C1=O",
    "value.kind": "Activity",
    "reported": "Active"
  },
  {
    "chemical.structure": "CN(C)CCN1C(=O)c2cccc3cc(O)cc(c23)C1=O",
    "value.kind": "Activity",
    "reported": "Active"
  }
]

// moving on: another record for Activity
Which measured Activity value corresponds to "CN(C)CCN1C(=O)c2cccc3cccc(c23)C1=O" ? Active

###

# experiment.notes: Binding affinity to 5'-r(GUCCGCGGAC)2-3' DNA assessed as change in melting temperature at 1:1 DNA to compound molar ratio by spectrophotometric analysis
value.kind: ΔTm (°C)

Please review the entries below; each comes with its answer.
[
  {
    "chemical.structure": "CC(=O)Nc1cc2c3c(cccc3c1)C(=O)N(CCN(C)C)C2=O",
    "ΔTm, °C": 0
  },
  {
    "chemical.structure": "Cc1cc2c3c(cccc3c1)C(=O)N(CCN(C)C)C2=O",
    "ΔTm, °C": 0
  }
]

[a] CN(C)CCN1C(=O)c2cccc3cc(Br)cc(c23)C1=O
[b] CC(C)Nc1cc2c3c(cccc3c1)C(=O)N(CCN(C)C)C2=O
[c] CN(C)CCN1C(=O)c2cccc3cc(-c4ccccc4)cc(c23)C1=O
Given 3 compounds, produce a descending ranking by ΔTm. Form entry: ranked labels (order as requested). a, b, c
(a: 2 °C, b: 1.1 °C, c: 0 °C)

###

# Test system: Nucleic Acid
# experiment.notes: Induction of DNA intercalation using 5'-d(GTAATATTAC)2-3' at 250 uM by UV-vis spectrophotometric analysis
# Format: nucleic-acid assay
Activity calls are given as the source filed them. The calls are words filed in the database; no cut-off is given here.
value.kind: Activity

Here is how some molecules turned out for Activity.
[
  {
    "chemical.structure": "Cc1cc2c3c(cccc3c1)C(=O)N(CCN(C)C)C2=O",
    "system.name": "Nucleic Acid",
    "Activity": "Active"
  },
  {
    "chemical.structure": "CN(C)CCN1C(=O)c2cccc3cc(I)cc(c23)C1=O",
    "system.name": "Nucleic Acid",
    "Activity": "Active"
  },
  {
    "chemical.structure": "CN(C)CCN1C(=O)c2cccc3cc([N+](=O)[O-])cc(c23)C1=O",
    "system.name": "Nucleic Acid",
    "Activity": "Active"
  },
  {
    "chemical.structure": "CC(=O)Nc1cc2c3c(cccc3c1)C(=O)N(CCN(C)C)C2=O",
    "system.name": "Nucleic Acid",
    "Activity": "Active"
  }
]

Could you now consider this next molecule?
Please give the measured Activity for this molecule: "CN(C)CCN1C(=O)c2cccc3cc(-c4ccccc4)cc(c23)C1=O" Active

###

# Tested on: Nucleic Acid
# experiment.notes: Induction of DNA intercalation using 5'-d(GTCCGCGGAC)2-3' at 250 uM by UV-vis spectrophotometric analysis
# Assay type: nucleic-acid assay
Activity calls are given as the source filed them. No cut-off for these calls is given here.
value.kind: Activity

[
  {
    "chemical.structure": "CC(=O)Nc1cc2c3c(cccc3c1)C(=O)N(CCN(C)C)C2=O",
    "system.name": "Nucleic Acid",
    "value.kind": "Activity",
    "reported": "Active"
  },
  {
    "chemical.structure": "CN(C)CCN1C(=O)c2cccc3cc(N)cc(c23)C1=O",
    "system.name": "Nucleic Acid",
    "value.kind": "Activity",
    "reported": "Active"
  },
  {
    "chemical.structure": "CN(C)CCN1C(=O)c2cccc3cc(Cl)cc(c23)C1=O",
    "system.name": "Nucleic Acid",
    "value.kind": "Activity",
    "reported": "Active"
  },
  {
    "chemical.structure": "CN(C)CCN1C(=O)c2cccc3cccc(c23)C1=O",
    "system.name": "Nucleic Acid",
    "value.kind": "Activity",
    "reported": "Active"
  },
  {
    "chemical.structure": "CN(C)CCN1C(=O)c2cccc3cc([N+](=O)[O-])cc(c23)C1=O",
    "system.name": "Nucleic Acid",
    "value.kind": "Activity",
    "reported": "Active"
  },
  {
    "chemical.structure": "CN(C)CCN1C(=O)c2cccc3cc(Br)cc(c23)C1=O",
    "system.name": "Nucleic Acid",
    "value.kind": "Activity",
    "reported": "Active"
  },
  {
    "chemical.structure": "CN(C)CCN1C(=O)c2cccc3cc(-c4ccccc4)cc(c23)C1=O",
    "system.name": "Nucleic Acid",
    "value.kind": "Activity",
    "reported": "Active"
  },
  {
    "chemical.structure": "CN(C)CCN1C(=O)c2cccc3cc(I)cc(c23)C1=O",
    "system.name": "Nucleic Acid",
    "value.kind": "Activity",
    "reported": "Active"
  }
]

Which Activity value is on record for "Cc1cc2c3c(cccc3c1)C(=O)N(CCN(C)C)C2=O" ? Active

Need Activity, item "CN(C)CCN1C(=O)c2cccc3cc(O)cc(c23)C1=O" Active

Which Activity is listed for "CC(C)Nc1cc2c3c(cccc3c1)C(=O)N(CCN(C)C)C2=O" ? Active

###

# experiment.notes: Binding affinity to 5'-d(GTCCGTCGGAC)-3'/5'-(GTCCGACGGAC)-3' DNA assessed as change in melting temperature at 1:1 DNA to compound molar ratio by spectrophotometric analysis
value.kind: ΔTm (°C)

[P] CN(C)CCN1C(=O)c2cccc3cccc(c23)C1=O
[Q] CN(C)CCN1C(=O)c2cccc3cc(O)cc(c23)C1=O
[R] CN(C)CCN1C(=O)c2cccc3cc([N+](=O)[O-])cc(c23)C1=O
Arrange these 3 compounds in increasing order of ΔTm. // ordering of labels required in reply P, Q, R

###

# experiment.notes: Binding affinity to 5'-d(GCGCGCGC)2-3' DNA assessed as change in melting temperature at 1:1 DNA to compound molar ratio by spectrophotometric analysis
value.kind: ΔTm (°C)

[
  {
    "chemical.structure": "CC(C)Nc1cc2c3c(cccc3c1)C(=O)N(CCN(C)C)C2=O",
    "ΔTm, °C": 7.9
  }
]

[P] CN(C)CCN1C(=O)c2cccc3cc(O)cc(c23)C1=O
[Q] CN(C)CCN1C(=O)c2cccc3cc(I)cc(c23)C1=O
[R] CN(C)CCN1C(=O)c2cccc3cc(Cl)cc(c23)C1=O
[S] CN(C)CCN1C(=O)c2cccc3cc(-c4ccccc4)cc(c23)C1=O
Form: Sort by [ΔTm] Order [ ascending ] Please respond with the labels ordered as the question requires. S, P, Q, R

[A] Cc1cc2c3c(cccc3c1)C(=O)N(CCN(C)C)C2=O
[B] CC(=O)Nc1cc2c3c(cccc3c1)C(=O)N(CCN(C)C)C2=O
[C] CN(C)CCN1C(=O)c2cccc3cc(Br)cc(c23)C1=O
[D] CN(C)CCN1C(=O)c2cccc3cc([N+](=O)[O-])cc(c23)C1=O
Order each entry by recorded ΔTm, climbing from the minimum. Quick reminder: the answer is the labels in the order asked. A, B, C, D
(A: 3.2 °C, B: 4.6 °C, C: 9.5 °C, D: 14.3 °C)

[1] CN(C)CCN1C(=O)c2cccc3cccc(c23)C1=O
[2] CN(C)CCN1C(=O)c2cccc3cc(N)cc(c23)C1=O
Smaller ΔTm value? Options are 1 and 2 Lab log: write the label of the selected item as the result. 1
(1: 8.7 °C, 2: 16.9 °C)
